experimental-target: HLA-B*08:01 (recombinant MHC class I molecule) (human)
assay-summary: REVEAL MHC-peptide binding assay, recombinant HLA-B*08:01
assay-endpoint: In Vitro Score

# count of solved cases: 3
>>> recorded_value("FWVKRGRKK [Synthetic peptide FWVKRGRKK]")
"0 score, % of positive control peptide"
>>> recorded_value("FWVKRGHKK [Synthetic peptide FWVKRGHKK]")
"0.4 score, % of positive control peptide"
>>> recorded_value("VAFIIFWVQ [Synthetic peptide VAFIIFWVQ]")
"0.2 score, % of positive control peptide"

I am curious: what In Vitro Score value has been reported for FWVKRGAKK [Synthetic peptide FWVKRGAKK] ?
0.3 score, % of positive control peptide

How about FWVSRGRKK [Synthetic peptide FWVSRGRKK] ?
0 score, % of positive control peptide

Then what about the binder AFIIFWVQR [Synthetic peptide AFIIFWVQR] ?
0 score, % of positive control peptide

What about this binder? FWVQRGSKK [Synthetic peptide FWVQRGSKK]
0 score, % of positive control peptide

Same thing, different binder: FWVQRGNKK [Synthetic peptide FWVQRGNKK]
0 score, % of positive control peptide

Now the binder IIFWVQRGN [Synthetic peptide IIFWVQRGN]
0 score, % of positive control peptide
